# Assay details: Peripheral muscarinolytic side effect (saliva/tear secretion, oxotremorine) relative to spasmolytic activity
# Assay context: mouse, in vivo, ip
Assay readout: selectivity ratio
Reply briefly: the number, and no unit.

Bench note: what selectivity ratio did CCN(CCCC(=O)C1CCCCC1)C(C)Cc1ccc(OC)cc1 (stereo not shown) show?
50

Taken from patent US4889849A.
